Data provenance: paper PMC13494018

biological target: CD276, Q5ZPR3
Sequence (Q5ZPR3 whole entry): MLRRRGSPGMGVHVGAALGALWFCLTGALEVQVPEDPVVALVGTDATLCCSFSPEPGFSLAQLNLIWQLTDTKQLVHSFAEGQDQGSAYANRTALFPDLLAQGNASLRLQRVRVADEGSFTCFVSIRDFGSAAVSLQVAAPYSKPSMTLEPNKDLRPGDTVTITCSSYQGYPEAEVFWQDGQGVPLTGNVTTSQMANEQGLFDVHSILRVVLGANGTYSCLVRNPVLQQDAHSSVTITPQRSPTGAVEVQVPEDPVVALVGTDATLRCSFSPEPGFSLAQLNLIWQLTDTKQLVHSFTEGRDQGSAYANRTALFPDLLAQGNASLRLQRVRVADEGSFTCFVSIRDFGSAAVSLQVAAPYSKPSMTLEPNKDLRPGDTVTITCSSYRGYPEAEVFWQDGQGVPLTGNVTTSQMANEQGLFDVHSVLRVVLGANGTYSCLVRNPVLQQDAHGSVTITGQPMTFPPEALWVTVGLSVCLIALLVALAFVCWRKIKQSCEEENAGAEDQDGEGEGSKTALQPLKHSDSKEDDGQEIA
RECORDED_METRIC: binding in a display sort

- BINDER: "design_487_778f5c6d-c470-43b8-8f82-464af6177e08_1892_dldesign_0_cycle1_af2pred (protein) AAQALLAQANAALGQLLDLAAEASASSPEEAARATAQMRETAAAAQAAAAAAAAQDPAIAPQAQAIAASAAALARNAEELVAAR"
  REPORTED_RESULT: "not found (inactive)"
- BINDER: "design_618_d4ffd631-0ea2-432e-ba0f-bd3d6297b2a0_776_dldesign_0_cycle1_af2pred (protein) GAEEELKKAEEMGEIAESIAKQAAKASGSKEAKELLKKAKELVKKAKENAKDKEKIKELLKELSRLAGQAAKQLIAALK"
  REPORTED_RESULT: "not found (inactive)"
- BINDER: "design_488_244881a1-ba0c-4c08-ad9c-1f64cf93580a_1252_dldesign_0_cycle1_af2pred (protein) DAARRQGAVAFMQQVLESAKNYPEAAPIAQAGLDRVAAAVAAGAPADEVVALARREAAAANKAMIAAAKA"
  REPORTED_RESULT: "not found (inactive)"
